Hello, the source for this data is patent US20190367619A1, in case you need it.

Biological target: T1, cynomolgus galectin-10-His, WGS isoform (cynomolgus)
T1 construct: also called cynoGal10-WGS; not shown: His tag
T1 chain: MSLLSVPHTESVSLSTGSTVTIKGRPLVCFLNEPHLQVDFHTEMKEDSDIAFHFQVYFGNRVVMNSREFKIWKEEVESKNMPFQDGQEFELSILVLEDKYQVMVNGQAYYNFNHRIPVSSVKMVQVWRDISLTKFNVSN
Test: SPR Biacore T3000, scFv-human Fc captured
assay readout: kon
Answer with the value and then the unit.

Entry 7B07 scFv-human Fc (Fc fusion, also called 007B07; not shown: CH2-CH3 constant domains of human IgG1 (pUPEX50 scFv-Fc fusion vector)) scFv: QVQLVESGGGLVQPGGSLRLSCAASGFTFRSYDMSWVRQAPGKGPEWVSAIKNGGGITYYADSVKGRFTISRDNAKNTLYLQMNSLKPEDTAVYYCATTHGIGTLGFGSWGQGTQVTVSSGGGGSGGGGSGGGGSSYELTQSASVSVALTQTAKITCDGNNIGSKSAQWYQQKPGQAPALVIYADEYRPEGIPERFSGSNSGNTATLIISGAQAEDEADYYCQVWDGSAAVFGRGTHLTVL : reported kon = ?
5e+07 M⁻¹ s⁻¹

Value lookup for kon; key = 10B02 scFv-human Fc (Fc fusion, also called 010B02; not shown: CH2-CH3 constant domains of human IgG1 (pUPEX50 scFv-Fc fusion vector)) scFv: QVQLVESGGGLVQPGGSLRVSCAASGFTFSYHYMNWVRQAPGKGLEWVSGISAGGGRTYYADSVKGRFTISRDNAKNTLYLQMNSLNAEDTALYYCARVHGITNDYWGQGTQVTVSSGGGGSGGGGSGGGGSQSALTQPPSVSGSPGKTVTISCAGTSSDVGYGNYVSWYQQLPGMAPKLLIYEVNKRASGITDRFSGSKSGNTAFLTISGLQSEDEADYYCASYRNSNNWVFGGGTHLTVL
770000 M⁻¹ s⁻¹

Recorded kon for 11F02 scFv-human Fc (Fc fusion, also called 011F02; not shown: CH2-CH3 constant domains of human IgG1 (pUPEX50 scFv-Fc fusion vector)) scFv: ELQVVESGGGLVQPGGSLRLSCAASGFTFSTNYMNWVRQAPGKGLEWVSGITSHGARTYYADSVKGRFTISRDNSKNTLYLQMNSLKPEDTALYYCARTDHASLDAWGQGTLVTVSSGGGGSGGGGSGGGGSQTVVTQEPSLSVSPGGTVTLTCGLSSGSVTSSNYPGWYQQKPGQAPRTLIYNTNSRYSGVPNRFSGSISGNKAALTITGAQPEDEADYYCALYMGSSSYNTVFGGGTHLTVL , please?
240000 M⁻¹ s⁻¹

Quick one: kon for 10D02 scFv-human Fc (Fc fusion, also called 010D02; not shown: CH2-CH3 constant domains of human IgG1 (pUPEX50 scFv-Fc fusion vector)) scFv: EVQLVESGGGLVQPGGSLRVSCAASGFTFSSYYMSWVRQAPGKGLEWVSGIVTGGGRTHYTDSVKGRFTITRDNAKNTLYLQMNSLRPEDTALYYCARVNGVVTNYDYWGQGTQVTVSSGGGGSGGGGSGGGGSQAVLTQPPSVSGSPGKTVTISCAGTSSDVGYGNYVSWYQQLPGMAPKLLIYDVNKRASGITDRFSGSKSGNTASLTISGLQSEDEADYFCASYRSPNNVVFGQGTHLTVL ?
450000 M⁻¹ s⁻¹
